Target: Succinate dehydrogenase [ubiquinone] iron-sulfur subunit, mitochondrial (Homo sapiens)
Assay: Irreversible inhibition of SDHB in human U2OS cells over-expressing Bim assessed as inhibition of apoptosis preincubated for 1 hr followed by compound washout and doxycyclin addition to induce Bim protein expression measured after 24 hrs by Cell Titer-Glo assay
Format: cell-based
Active and inactive are the calls of the source. The calls are words filed in the database; no cut-off is given here.
MEASURE: inhibition

Study these solved cases before continuing.
>>> df
                                smiles_text  result
0  COc1cccc(Cn2cc(-c3cc(C(F)(F)F)nc(S(C)(=O)=O)n3)ccc2=O)c1  Active
1  CCOC(=O)CCS(=O)(=O)c1nc(-c2cccs2)cc(C(F)(F)F)n1  Active
2  CS(=O)(=O)c1nc(-c2ccc(=O)n(Cc3ccccc3Cl)c2)cc(C(F)(F)F)n1  Active
3  CCCOc1cccc(Cn2cc(-c3cc(C(F)(F)F)nc(S(C)(=O)=O)n3)ccc2=O)c1  Active

For the next question, use this molecule.
input: Any idea what inhibition was measured for CS(=O)(=O)c1nc(-c2ccc(=O)n(Cc3cccc(Cl)c3)c2)cc(C(F)(F)F)n1 ?
output: Active
